Would you mind telling me the reported glycan array binding signal (z-score) of each entry?
molecular target: Fuc(a1-2)Gal(b1-3)GlcNAc; experiment: glycan array binding signal (z-score within array); higher = stronger binding; settings: glycan notation: IUPAC condensed, linker removed
The sample as a whole holds a higher share of the strongest signals than the screen did.
Answers are plain numbers.

Worked cases, glycan array binding signal (z-score) given:
Binder	Observed Value
Als3-41 (Candida albicans) (protein) KTITGVFNSFNSLTWSNAATYNYKGPGTPTWNAVLGWSLDGTSASPGDTFTLNMPCVFKFTTSQTSVDLTAHGVKYATCQFQAGEEFMTFSTLTCTVSNTLTPSIKALGTVTLPLAFNVGGTGSSVDLEDSKCFTAGTNTVTFNDGGKKISINVDFERSNVDPKGYLTDSRVIPSLNKVSTLFVAPQCANGYTSGTMGFANTYGDVQIDCSNIHVGITKGLNDWNYPVSSESFSYTKTCSSNGIFITYKNVPAGYRPFVDAYISATDVNSYTLSYANEYTCAGGYWQRAPFTLRWTGYRNSDAGSNGIVIVATTRTVTDSTTAVTTLPFDPNRDKTKTIEILKPIPTTTITTSYVGVTTSYLTKTAPIGETATVIVD	-0.256
FimA-N1 (Actinomyces oris) (protein) MHHHHHHSSGVDLGTENLYFQSNATETPNYGNIKTDATGSLVIHKHLTGGGKDIGTPTGTAQNADDKGPAVEGVVFTAYPITDINLKDPAGWDTISNLSRTGVPDSACANPAAPTLGAHQFGTPKVSPATTKEGLATITEMPVQAYLVCETTTPGDIVQKAKPFVVTIPHPNTAAGADGQWIYDVNVYPKNEAIDVDKTIQAQK	-0.136
StdA (Salmonella typhimurium), Q8Z3Z0 (protein) MAAAGMMYGASVFAADTTPTAGPFGSGKILFTGTITNSPCDIAPGDDAITVPFGQISYRKLNTANATTDSKPFTIHLQNCAFDPNETTIAGSAGKMSKVTVSFSGTADTSGKAYVSTGSAQHVGVQLLKGDNTSLITPNTPMPDGDAQQLQAGNNELNFFARLIALTDAATPGDVNASVTYTLKYL	-0.15

Now, please, on to the next binder.
Query: GET /values?readout=glycan array binding signal (z-score)&item= PA-IL (Pseudomonas aeruginosa) (protein) AWKGEVLANNEAGQVTSIIYNPGDVITIVAAGWASYGPTQKWGPQGDREHPDQGLICHDAFCGALVMKIGNSGTIPVNTGLFRWVAPNNVQGAITLIYNDVPGTYGNNSGSFSVNIGKDQS
Response: -0.365
